- Test summary: Antioxidant potential was assessed from reducing activity against 2,2,di-phenyl-1-picrylhydrazyl.
# kDPPH binned as low = under 8 M⁻¹ s⁻¹, mid = from 8 M⁻¹ s⁻¹ up to 20 M⁻¹ s⁻¹, high = 20 M⁻¹ s⁻¹ and over

For orientation, consider the following solved cases.
CCC1c2cccc(O)c2C(=O)c2c(O)cccc21 ... low
CCCCc1ccc2c(c1O)C(=O)c1c(O)cccc1C2 ... low
O=C1c2cccc(O)c2C(=O)c2c(O)cccc21 ... low
O=C1c2c(Cl)cccc2Cc2cccc(Cl)c21 ... low

Ask: Lab note: sort O=C1c2c(O)cccc2C(Cc2ccccc2)(Cc2ccccc2)c2cccc(O)c21 into the matching kDPPH band.
Result: low

Ask: Which class is correct for the following molecule? O=C(c1ccccc1)c1cccc2c1C(=O)c1c(O)cccc1C2
Result: high

Ask: Any idea which band CCSC1c2cccc(O)c2C(=O)c2c(O)cccc21 is in?
Result: high
